# test: Cmax in Sprague-Dawley rat plasma at 5 mg/kg, po
# Assay type: ADME, organism-based
# Set-up: dose 5 mg/kg, route oral
outcome-measure: Cmax
Number plus unit, in that order.

Please report the recorded Cmax for "Cc1nnc([C@H]2CCCN2C(=O)Nc2ccc(C(F)(F)F)cc2)n1Cc1ccc(Cl)cc1" .
1120 ng/mL

----------
# system-name: C-C chemokine receptor type 1 (Homo sapiens, UniProt P32246)
# Sequence (P32246 whole entry): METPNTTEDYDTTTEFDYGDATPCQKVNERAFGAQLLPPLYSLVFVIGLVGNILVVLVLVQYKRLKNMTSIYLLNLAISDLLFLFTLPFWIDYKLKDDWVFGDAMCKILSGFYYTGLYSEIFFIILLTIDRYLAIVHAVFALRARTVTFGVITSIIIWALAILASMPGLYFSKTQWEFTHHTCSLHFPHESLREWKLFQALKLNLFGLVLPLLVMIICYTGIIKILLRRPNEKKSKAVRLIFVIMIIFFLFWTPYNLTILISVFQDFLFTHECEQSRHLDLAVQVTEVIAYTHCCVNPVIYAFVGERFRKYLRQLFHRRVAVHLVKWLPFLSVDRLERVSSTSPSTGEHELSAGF
# test: Displacement of [125I]-MIP1-alpha from human recombinant CCR1 expressed in HEK293 cells after 4 hrs by SPA
# IC50 annotations
Respond numerically; units are nM and should not be typed.

{"molecule": "Cc1nnc([C@H]2CCCN2C(=O)Nc2ccc(C(F)(F)F)cc2)n1Cc1ccc(Cl)cc1", "system-name": "C-C chemokine receptor type 1 (Homo sapiens, UniProt P32246)", "IC50 [nM]": 69}
{"molecule": "Cc1nc([C@H]2CCCN2C(=O)Nc2ccc(C(F)(F)F)cc2)n(Cc2ccc(Cl)cc2)n1", "system-name": "C-C chemokine receptor type 1 (Homo sapiens, UniProt P32246)", "IC50 [nM]": 810}
{"molecule": "O=C(Nc1ccc(C(F)(F)F)cc1)N1CCC[C@@H]1c1ncnn1Cc1ccc(Cl)cc1", "system-name": "C-C chemokine receptor type 1 (Homo sapiens, UniProt P32246)", "IC50 [nM]": 32}
{"molecule": "O=C(Nc1ccc(C(F)(F)F)cc1)N1CCC[C@@H]1c1nncn1Cc1ccc(Cl)cc1", "system-name": "C-C chemokine receptor type 1 (Homo sapiens, UniProt P32246)", "IC50 [nM]": 17}
{"molecule": "O=C(Nc1ccc(C(F)(F)F)cc1)N1CCCC1c1nccn1Cc1ccc(Cl)cc1 (stereo unspecified)", "system-name": "C-C chemokine receptor type 1 (Homo sapiens, UniProt P32246)", "IC50 [nM]": 65}

Please examine the following record next.
Please report the recorded IC50 for "O=C(Nc1ccc(C(F)(F)F)cc1)N1CCC[C@@H]1c1nnnn1Cc1ccc(Cl)cc1" .
20

All figures here come from ChEMBL document CHEMBL1221349.
